Cited source for all entries: patent US20190359653A1

- target: hFZD7 CRD-Fc (human, UniProt O75084 33-185)
- assay-remarks: spot phage ELISA
I would appreciate it if you labelled entries Condition met when S/N is 50 or higher, otherwise Condition not met.

APSDDVAFWCHVMY [SEQ ID NO 42] :: Condition met

Task: Evaluate LPAADLAAWCHVMY [SEQ ID NO 82] : S/N at minimum 50?
Output: Condition not met

Task: Form field: S/N at least 50? Entry: VAADDLAFWCDVMY [SEQ ID NO 88]
Output: Condition not met
